# Tested on: STK16;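 note: KINOMEscan kinase panel screen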
# CONDITION_SET: concentration: 1 μM,replicates: in singlicate; n = 1
Binarize %Inh at 6%; below is label 1, at or above is label 0.

>>> answer_label("Cc1cc(C(=O)Nc2ccc(Oc3ccc4nc(NC(=O)C5CC5)cn4n3)cc2)nn1-c1ccccc1")
"label 0"
>>> answer_label("C[C@H]1Oc2cc(cnc2N)-c2c(nn(C)c2C#N)CN(C)C(=O)c2ccc(F)cc21")
"label 1"
>>> answer_label("CCn1c(-c2nonc2N)nc2c(C#CC(C)(C)O)nc(OCCN)cc21.Cl.Cl")
"label 1"
>>> answer_label("O=C(NCCCN1CCOC1=O)c1cnc(NCc2cc(Cl)ccc2Cl)nc1NC1CCCC1")
"label 0"
>>> answer_label("CCN(CC)CCOc1ccc(Nc2ncc3cc(-c4c(Cl)cccc4Cl)c(=O)n(C)c3n2)cc1")
"label 0"
>>> answer_label("CC(C)Nc1cc(-c2ccc3c(N)n[nH]c3c2)nc(N)n1")
"label 0"
